Values compiled from patent US20230357348A1.

Target: human glucagon receptor (hGCGR) (human, UniProt P47871 26-477)
Sequence (P47871 26-477): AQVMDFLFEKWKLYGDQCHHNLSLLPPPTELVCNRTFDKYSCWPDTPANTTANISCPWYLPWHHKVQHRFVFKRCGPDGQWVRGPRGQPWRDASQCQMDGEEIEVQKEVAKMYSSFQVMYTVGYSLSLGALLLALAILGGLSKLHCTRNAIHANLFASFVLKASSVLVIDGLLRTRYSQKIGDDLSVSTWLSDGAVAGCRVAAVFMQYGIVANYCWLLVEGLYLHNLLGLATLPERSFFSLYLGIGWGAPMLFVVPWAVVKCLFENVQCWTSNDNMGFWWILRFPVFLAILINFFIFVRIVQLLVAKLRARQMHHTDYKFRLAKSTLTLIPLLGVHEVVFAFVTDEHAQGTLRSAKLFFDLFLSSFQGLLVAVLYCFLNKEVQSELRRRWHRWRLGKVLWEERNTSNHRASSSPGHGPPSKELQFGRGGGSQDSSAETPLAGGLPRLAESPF
Test: cell-based or functional assay
Starred links: 1 amine or outer side, 2 acyl side, 3 side chain; linkers in the order of their positions; H or OH if unused. Non-standard residues stand in square brackets, D forms with d. Groups on a side chain read outwards from the residue. No end group written: not given here. *: point of attachment. C20 diacid = O=C(O)CCCCCCCCCCCCCCCCCCC(=O)*; C18 diacid = O=C(O)CCCCCCCCCCCCCCCCC(=O)*; γGlu = O=C(O)[C@H](CCC(=O)[*:2])N[*:1]; αMeF = C[C@](N)(Cc1ccccc1)C(=O)O; AEEA = NCCOCCOCC(=O)O; Aib = CC(C)(N)C(=O)O
// reported hGluc-R EC50 (pM) per item
Provide only the numeric value, understood in pM.

Previously resolved entries follow.
H[Aib]QGTFTSDVSK[αMeF]LETKRARDFVQWLLE[Aib]G-OH (not fully specified (residue 17)) [Peptide 444]; 1760
H[Aib]QGTFTSDVSK[αMeF]LDTKRARDFVQWLLE[Aib]G-OH (not fully specified (residue 17)) [Peptide 520]; 1620
H[Aib]QGTFTSDVSK[αMeF]LDRK([AEEA-AEEA-γGlu-C20 diacid])RARDFVQWLL[Aib]E-NH2 [Peptide 471]; 63.6
H[Aib]QGTFTSDVSK[αMeF]LDTK([AEEA-AEEA-γGlu-C20 diacid])RAQDFVRWLLE[Aib]K-OH [Peptide 503]; 84.9
H[Aib]QGTFTSDVSK[αMeF]LDTK([AEEA-AEEA-γGlu-γGlu-C18 diacid])RAQDFVQWLLE[Aib]G-NH2 [Peptide 468]; 292

Can you share its hGluc-R EC50 (pM)? I mean this binder: H[Aib]QGTFTSDVSK[αMeF]LDKK([AEEA-AEEA-γGlu-C20 diacid])RAQDFVRWLLAE-NH2 [Peptide 460]
66.5

Can you share its hGluc-R EC50 (pM)? I mean this binder: H[Aib]QGTFTSDVSK[αMeF]LDTK([AEEA-AEEA-γGlu-γGlu-C20 diacid])RARDFVQWLLE[Aib]G-NH2 [Peptide 458]
385

Can you share its hGluc-R EC50 (pM)? I mean this binder: H[Aib]QGTFTSDVSK[αMeF]LDTK([AEEA-AEEA-γGlu-γGlu-C18 diacid])RARDFVQWLLE[Aib]G (not fully specified (C-terminus)) [Peptide 428]
10.5
